- Test system: Transthyretin (Homo sapiens)
- Procedure summary: Induction of stability of human recombinant interleukin 2 assessed as binding affinity of drug-conjugated rIL2 to human TTR in PBS buffer at pH 7.4 measured after 20 mins fluorescence polarization assay
Readout type: Kd
Answer with the figure and its unit, nothing else.

Request: Consider the compound Cc1n[nH]c(C)c1CCCOc1cc(OCCCc2cn(CCOCCOCCOCCOCCNC(=O)C3CCC(CN4C(=O)C=CC4=O)CC3)nn2)cc(C(=O)O)c1 (stereo unspecified) and give its measured Kd.
Response: 851 nM
